- targetSystem: RAF1 (human) (UniProt P04049)
- Sequence (P04049 whole entry, looked up): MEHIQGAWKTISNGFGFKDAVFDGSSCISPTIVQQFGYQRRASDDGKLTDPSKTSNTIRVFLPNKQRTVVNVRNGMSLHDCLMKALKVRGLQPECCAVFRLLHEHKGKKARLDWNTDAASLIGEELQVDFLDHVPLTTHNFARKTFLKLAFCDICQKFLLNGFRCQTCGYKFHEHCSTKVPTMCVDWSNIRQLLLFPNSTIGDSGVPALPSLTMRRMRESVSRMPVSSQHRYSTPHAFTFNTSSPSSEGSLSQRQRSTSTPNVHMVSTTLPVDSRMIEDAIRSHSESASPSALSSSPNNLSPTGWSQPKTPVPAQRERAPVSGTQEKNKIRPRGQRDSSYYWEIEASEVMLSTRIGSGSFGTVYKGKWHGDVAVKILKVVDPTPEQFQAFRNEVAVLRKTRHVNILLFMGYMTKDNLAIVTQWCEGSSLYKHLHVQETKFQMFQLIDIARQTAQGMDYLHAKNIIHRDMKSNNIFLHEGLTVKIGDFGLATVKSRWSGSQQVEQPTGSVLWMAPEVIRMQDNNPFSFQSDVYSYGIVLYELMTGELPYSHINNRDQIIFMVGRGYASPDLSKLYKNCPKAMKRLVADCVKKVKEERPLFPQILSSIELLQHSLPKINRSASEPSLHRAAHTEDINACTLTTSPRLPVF
- testMethodNotes: KINOMEscan competition binding
- conditions: compound 10.0 µM
endpoint: kinase still bound, per cent of control (%)

>>> obsvalue("CCN(CCO)CCCOc1ccc2c(Nc3cc(CC(=O)Nc4cccc(F)c4)[nH]n3)ncnc2c1")
100
>>> obsvalue("CCOc1cc(N2CCC(O)CC2)ccc1Nc1ncc2c(n1)N(C)c1ccccc1C(=O)N2C")
100
>>> obsvalue("C=CC(=O)Nc1ccc(C(=O)c2sc(Nc3ccc(N4CCN(C)CC4)cc3OC)nc2N)cc1")
97
>>> obsvalue("COc1cc(N2CCC(C(N)=O)CC2)ccc1Nc1nc(N)c(Cl)c(Nc2ccccc2S(=O)(=O)C(C)C)n1")
100
>>> obsvalue("CCN1CCN(Cc2ccc(NC(=O)c3ccc(C)c(/C=C/c4cnc5[nH]ccc5c4OC)c3)cc2C(F)(F)F)CC1")
0.9
>>> obsvalue("N#C/C(=C1/Nc2ccccc2S1)c1ccnc(NCCc2cccnc2)n1")
100
>>> obsvalue("CCCS(=O)(=O)Nc1ccc(F)c(C(=O)c2c[nH]c3ncc(Cl)cc23)c1F")
3.4
>>> obsvalue("COc1ccc(N(C(=O)Oc2cc(C(=O)Nc3cccc(C(F)(F)F)c3)ccc2C)c2ccnc(Nc3ccc(N4CCN(C)CC4)cc3)n2)c(OC)c1")
23
>>> obsvalue("COc1cc2c(Nc3ccc(NC(=O)c4ccccc4)cc3)ncnc2cc1OCCCN1CCOCC1")
100
>>> obsvalue("CC1=C(C(=O)Nc2cc3cn[nH]c3cc2F)C(c2ccc(C(F)(F)F)cc2)CC(=O)N1 (stereo not drawn)")
100
>>> obsvalue("N#Cc1cc(-c2ccnc(Nc3ccc(-n4cnc(-c5cccnc5)n4)cc3)n2)cc(N2CCOCC2)c1")
91
>>> obsvalue("COc1cc2ncnc(Nc3cccc(Cl)c3)c2cc1OC")
84
>>> obsvalue("COc1cc(C)c(Sc2cnc(NC(=O)c3ccc(CNC(C)C(C)C)cc3)s2)cc1C(=O)N1CCN(C(C)=O)CC1 (stereo not drawn)")
100

###

This listing pairs compounds with measured kinase still bound, per cent of control.
- targetSystem: TAOK3 (human) (UniProt Q9H2K8)
- Sequence (Q9H2K8 whole entry, looked up): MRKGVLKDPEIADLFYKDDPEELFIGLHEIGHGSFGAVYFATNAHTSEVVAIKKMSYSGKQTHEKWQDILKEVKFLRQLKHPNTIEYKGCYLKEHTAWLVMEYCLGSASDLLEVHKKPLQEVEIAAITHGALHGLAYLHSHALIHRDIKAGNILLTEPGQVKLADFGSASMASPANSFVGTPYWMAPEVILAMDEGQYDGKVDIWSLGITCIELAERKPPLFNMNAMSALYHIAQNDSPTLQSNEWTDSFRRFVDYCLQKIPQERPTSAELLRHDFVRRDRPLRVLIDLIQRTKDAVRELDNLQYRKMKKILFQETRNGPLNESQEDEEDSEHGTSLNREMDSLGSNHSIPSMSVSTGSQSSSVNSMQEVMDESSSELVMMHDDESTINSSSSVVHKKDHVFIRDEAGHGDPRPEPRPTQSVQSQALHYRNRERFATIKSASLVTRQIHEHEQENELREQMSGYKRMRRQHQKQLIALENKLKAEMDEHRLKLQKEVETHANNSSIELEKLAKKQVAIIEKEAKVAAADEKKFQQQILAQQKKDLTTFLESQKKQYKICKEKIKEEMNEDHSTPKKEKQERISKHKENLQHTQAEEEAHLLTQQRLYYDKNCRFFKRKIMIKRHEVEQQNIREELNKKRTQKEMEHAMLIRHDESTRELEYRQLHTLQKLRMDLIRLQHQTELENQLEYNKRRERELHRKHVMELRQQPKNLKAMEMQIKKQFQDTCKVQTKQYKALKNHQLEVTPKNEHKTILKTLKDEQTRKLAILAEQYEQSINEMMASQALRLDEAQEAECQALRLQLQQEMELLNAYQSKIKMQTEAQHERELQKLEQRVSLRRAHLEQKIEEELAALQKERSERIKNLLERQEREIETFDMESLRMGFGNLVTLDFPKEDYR
- testMethodNotes: KINOMEscan competition binding
- conditions: compound 10.0 µM
endpoint: kinase still bound, per cent of control (%)

>>> obsvalue("COc1cc2ncnc(Nc3cccc(Cl)c3)c2cc1OC")
78
>>> obsvalue("CCN(CCO)CCCOc1ccc2c(Nc3cc(CC(=O)Nc4cccc(F)c4)[nH]n3)ncnc2c1")
100
>>> obsvalue("CCOc1cc(N2CCC(O)CC2)ccc1Nc1ncc2c(n1)N(C)c1ccccc1C(=O)N2C")
100
>>> obsvalue("COc1cc(C)c(Sc2cnc(NC(=O)c3ccc(CNC(C)C(C)C)cc3)s2)cc1C(=O)N1CCN(C(C)=O)CC1 (centres undefined)")
3.6
>>> obsvalue("COc1cc(N2CCC(C(N)=O)CC2)ccc1Nc1nc(N)c(Cl)c(Nc2ccccc2S(=O)(=O)C(C)C)n1")
100
>>> obsvalue("CC(=O)c1c(C)c2cnc(Nc3ccc(N4CCNCC4)cn3)nc2n(C2CCCC2)c1=O")
8.1
>>> obsvalue("CCN1CCN(Cc2ccc(NC(=O)c3ccc(C)c(/C=C/c4cnc5[nH]ccc5c4OC)c3)cc2C(F)(F)F)CC1")
0
>>> obsvalue("CNC(=O)Nc1ccc(-c2nc(N3CC4CCC(C3)O4)c3cnn(C4CCC5(CC4)OCCO5)c3n2)cc1")
90
>>> obsvalue("N#C/C(=C1/Nc2ccccc2S1)c1ccnc(NCCc2cccnc2)n1")
24
